Value source: PubChem BioAssay AID624330

# Assay system: Rac GTPase-activating protein 1 (Homo sapiens) (UniProt Q9H0H5)
# Sequence (Q9H0H5 whole entry, looked up): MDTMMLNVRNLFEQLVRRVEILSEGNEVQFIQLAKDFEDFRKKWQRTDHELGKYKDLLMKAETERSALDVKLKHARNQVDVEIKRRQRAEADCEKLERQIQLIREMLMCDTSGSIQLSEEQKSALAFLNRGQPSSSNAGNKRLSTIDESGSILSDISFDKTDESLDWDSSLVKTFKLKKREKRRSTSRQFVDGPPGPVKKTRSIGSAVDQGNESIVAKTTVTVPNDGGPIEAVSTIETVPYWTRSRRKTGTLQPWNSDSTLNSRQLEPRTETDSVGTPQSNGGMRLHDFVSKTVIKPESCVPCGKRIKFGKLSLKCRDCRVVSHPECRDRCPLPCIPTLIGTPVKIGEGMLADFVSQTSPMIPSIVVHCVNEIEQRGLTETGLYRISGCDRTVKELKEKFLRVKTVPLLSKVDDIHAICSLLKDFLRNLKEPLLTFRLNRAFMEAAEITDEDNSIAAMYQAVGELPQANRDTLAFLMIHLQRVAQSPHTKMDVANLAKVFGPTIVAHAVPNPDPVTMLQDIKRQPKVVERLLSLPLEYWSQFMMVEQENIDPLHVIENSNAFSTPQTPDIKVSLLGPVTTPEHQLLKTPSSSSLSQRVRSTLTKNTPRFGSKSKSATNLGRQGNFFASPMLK
# Assay name: blockers of MgcRacGAP-driven Rac1 GTP hydrolysis – biochemical, ADP Hunter fluorescence, primary and confirmatory, confirmation (AID 624330);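 also: fluorescence reports GDP produced by GAP-driven GTP hydrolysis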
# Test parameters: MgcRacGAP-stimulated Rac1 GTP hydrolysis, at 30 µM, active compounds read high, GST-tagged Rac1 F28L mutant substrate
The campaign covered roughly 340,000 compounds. About 2,100 (0.62%) were called active. A selection follows. Measured potencies and affinities stand elsewhere.
Parameter measured: inhibition (%)

• CCOC(=O)c1cnc(Nc2ccccc2)nc1C(F)(F)F = 1.7
• O=C(O)c1cc(N/N=C/c2c[nH]c3ccccc23)ccc1Cl = 23.8
• O=C(NNC(=O)C1CC=CCC1)c1ccccc1O (configuration not stated) = -10.1
• CC(=O)c1ccc(NC(=O)CN2C(=O)NC3(CCc4ccccc43)C2=O)cc1 (configuration not stated) = 1.63
• Cc1ccc(NC(=O)CN2C(=O)NC3(CCc4ccccc43)C2=O)cc1 (configuration not stated) = -6.82
• Cc1nn(CC(=O)N2CCc3ccccc3C2)c(C)c1[N+](=O)[O-] = 4.25
• COc1ccc(/C=N/NC(=O)c2ccc(-c3ccccc3)cc2)cc1O = 25.4
• COc1ccc(C)c2sc(N(CCCN(C)C)C(=O)CS(=O)(=O)c3ccc(F)cc3)nc12 = 2.17
• COc1cc(C=NNc2nc3c([nH]2)c(=O)n(C)c(=O)n3C)ccc1O = 12.7
• COC(=O)C1(Cc2ccc(O)cc2)OC(=O)C(O)=C1c1ccc(O)cc1 (configuration not stated) = 16.3
• Cc1ccc(Cl)cc1N1CCN(C(=O)CN(C2CCCCC2)S(C)(=O)=O)CC1 = 1.2
• O=C(CCN1C(=O)C2C3CC(C(Br)C3Br)C2C1=O)OCC(=O)c1ccccc1 (configuration not stated) = 7.46
• O=C(Nc1nccs1)C1CC=CCC1 (configuration not stated) = 0.32
• Nc1ccc(C(=O)N/N=C/c2cn(Cc3ccccc3)c3ccccc23)cc1 = 0.58
• COc1cc(/C=N/Nc2ccccc2C(F)(F)F)ccc1O = 20.2
• O=C(N/N=C/c1ccc(F)cc1)c1ccc(-n2cnnn2)cc1 = -4.33
• CSCCC(NS(=O)(=O)c1ccc2c(c1)oc(=O)n2C)C(=O)NCc1ccc(C)cc1 (configuration not stated) = 9.41
